Reference for the values: patent US6423752B1

# System: mouse ear oedema
# measurement_protocol: Mouse ear oedema model (arachidonic acid induced)
# Assay type: in vivo, Laca mice
# protocol_conditions: 300 μg per ear topically 30 min prior to 400 μg arachidonic acid; 1 hour after arachidonic acid; n=4
endpoint: percentage increase in ear thickness (Mean %)
Write down the numeric answer in % and omit the unit.

Before answering, review these 5 worked examples.
| molecule | endpoint_unit | reported_value |
| --- | --- | --- |
| CC(=O)N(C1Cc2ccccc2C1)C1CC(=O)c2ccccc21 (stereo not drawn) [Compound 6C11, N-2-Indanyl-N-3-indan-1-onylethanamide] | % | 26.0 |
| CN(C1Cc2ccccc2C1)C1CC(=O)c2ccccc21 (stereo not drawn) [Compound 6C6] | % | 73.0 |
| COc1ccc2c(c1)c(CC(=O)O)c(C)n2C(=O)c1ccc(Cl)cc1 [Indomethacin, reference compound] | % | 39.6 |
| C[C@@H]1C[C@H]2[C@@H]3CCC4=CC(=O)C=C[C@]4(C)[C@@]3(F)[C@@H](O)C[C@]2(C)[C@@]1(O)C(=O)CO [Dexamethasone, reference compound] | % | 37.9 |
| C=CCN(C1Cc2ccccc2C1)C1CC(=O)c2ccccc21 (stereo not drawn) [Compound 6C7] | % | 71.5 |

Now consider the entry below.
Missing value: percentage increase in ear thickness (Mean %), mouse ear oedema, entry C=CCN(C1CCc2ccccc21)C1CC(=O)c2ccccc21 (stereo not drawn) [Compound 5C6] . Fill in?
52.0
